Origin of measurements: the supplement of paper PMC10307832

The following molecules are listed with their measured relative viability values.
Tested on: COR-L23
Assay Info: relative viability (nuclei count vs DMSO), 5 days (fraction); higher = more cells survive
Run Parameters: first compound 0.02 µM
Parameter Measured: relative viability

Molecule	Tested System	Number
CC(=O)O[C@@]12CO[C@@H]1C[C@H](O)[C@@]1(C)C(=O)[C@H](O)C3=C(C)[C@@H](OC(=O)[C@H](O)[C@@H](NC(=O)OC(C)(C)C)c4ccccc4)C[C@@](O)([C@@H](OC(=O)c4ccccc4)[C@H]21)C3(C)C [Docetaxel] + N=C(N)NC(=N)NCCc1ccccc1 [Phenformin] (partner 250 µM)	COR-L23	0.098
CC(=O)O[C@@]12CO[C@@H]1C[C@H](O)[C@@]1(C)C(=O)[C@H](O)C3=C(C)[C@@H](OC(=O)[C@H](O)[C@@H](NC(=O)OC(C)(C)C)c4ccccc4)C[C@@](O)([C@@H](OC(=O)c4ccccc4)[C@H]21)C3(C)C [Docetaxel] + C[C@@H](Oc1cc(-c2cnn(C3CCNCC3)c2)cnc1N)c1c(Cl)ccc(F)c1Cl [Crizotinib] (partner 1 µM)	COR-L23	0.0806
CC(=O)O[C@@]12CO[C@@H]1C[C@H](O)[C@@]1(C)C(=O)[C@H](O)C3=C(C)[C@@H](OC(=O)[C@H](O)[C@@H](NC(=O)OC(C)(C)C)c4ccccc4)C[C@@](O)([C@@H](OC(=O)c4ccccc4)[C@H]21)C3(C)C [Docetaxel] + CC(=O)Nc1cccc(-n2c(=O)n(C3CC3)c(=O)c3c(Nc4ccc(I)cc4F)n(C)c(=O)c(C)c32)c1 [Trametinib] (partner 0.02 µM)	COR-L23	0.0909
CC(=O)O[C@@]12CO[C@@H]1C[C@H](O)[C@@]1(C)C(=O)[C@H](O)C3=C(C)[C@@H](OC(=O)[C@H](O)[C@@H](NC(=O)OC(C)(C)C)c4ccccc4)C[C@@](O)([C@@H](OC(=O)c4ccccc4)[C@H]21)C3(C)C [Docetaxel] + CC(=O)c1c(C)c2cnc(Nc3ccc(N4CCNCC4)cn3)nc2n(C2CCCC2)c1=O [Palbociclib] (partner 0.5 µM)	COR-L23	0.108
CC(=O)O[C@@]12CO[C@@H]1C[C@H](O)[C@@]1(C)C(=O)[C@H](O)C3=C(C)[C@@H](OC(=O)[C@H](O)[C@@H](NC(=O)OC(C)(C)C)c4ccccc4)C[C@@](O)([C@@H](OC(=O)c4ccccc4)[C@H]21)C3(C)C [Docetaxel] + C[C@]1(O)C[C@@H](c2nc(-c3ccc4ccc(-c5ccccc5)nc4c3)c3c(N)nccn32)C1 [Linsitinib] (partner 1 µM)	COR-L23	0.0798
CC(=O)O[C@@]12CO[C@@H]1C[C@H](O)[C@@]1(C)C(=O)[C@H](O)C3=C(C)[C@@H](OC(=O)[C@H](O)[C@@H](NC(=O)OC(C)(C)C)c4ccccc4)C[C@@](O)([C@@H](OC(=O)c4ccccc4)[C@H]21)C3(C)C [Docetaxel] + CCNC(=O)c1noc(-c2cc(C(C)C)c(O)cc2O)c1-c1ccc(CN2CCOCC2)cc1 [Luminespib] (partner 0.01 µM)	COR-L23	0.101

###

System: NCI-H1563
Assay Info: relative viability (nuclei count vs DMSO), 5 days (fraction); higher = more cells survive
Run Parameters: first compound 0.5 µM
As shown below, each of these molecules has a reported relative viability value.

Molecule	relative viability
COc1cc2nccc(Oc3ccc(NC(=O)Nc4cc(C)on4)c(Cl)c3)c2cc1OC [Tivozanib] + CS(=O)(=O)CCNCc1ccc(-c2ccc3ncnc(Nc4ccc(OCc5cccc(F)c5)c(Cl)c4)c3c2)o1 [Lapatinib] (partner 2 µM)	0.796
Nc1ccn([C@@H]2O[C@H](CO)[C@@H](O)[C@@H]2O)c(=O)n1 [Cytarabine] + N=C(N)NC(=N)NCCc1ccccc1 [Phenformin] (partner 250 µM)	0.567
Nc1ccn([C@@H]2O[C@H](CO)[C@@H](O)[C@@H]2O)c(=O)n1 [Cytarabine] + CC(C)C[C@H](NC(=O)[C@H](Cc1ccccc1)NC(=O)c1cnccn1)B(O)O [Bortezomib] (partner 0.002 µM)	0.592
COc1cc2nccc(Oc3ccc(NC(=O)Nc4cc(C)on4)c(Cl)c3)c2cc1OC [Tivozanib] + COc1cc2c(Oc3ccc(NC(=O)C4(C(=O)Nc5ccc(F)cc5)CC4)cc3F)ccnc2cc1OCCCN1CCOCC1 [Foretinib] (partner 0.25 µM)	0.867
COc1cc2nccc(Oc3ccc(NC(=O)Nc4cc(C)on4)c(Cl)c3)c2cc1OC [Tivozanib] + N=C(N)NC(=N)NCCc1ccccc1 [Phenformin] (partner 250 µM)	0.666
COc1cc2nccc(Oc3ccc(NC(=O)Nc4cc(C)on4)c(Cl)c3)c2cc1OC [Tivozanib] + C[C@]1(O)C[C@@H](c2nc(-c3ccc4ccc(-c5ccccc5)nc4c3)c3c(N)nccn32)C1 [Linsitinib] (partner 1 µM)	1.22
Nc1ccn([C@@H]2O[C@H](CO)[C@@H](O)[C@@H]2O)c(=O)n1 [Cytarabine] + Nc1nc2[nH]cc(CCc3ccc(C(=O)N[C@@H](CCC(=O)O)C(=O)O)cc3)c2c(=O)[nH]1 [Pemetrexed] (partner 0.2 µM)	0.44
COc1cc2nccc(Oc3ccc(NC(=O)Nc4cc(C)on4)c(Cl)c3)c2cc1OC [Tivozanib] + Nc1nc2[nH]cc(CCc3ccc(C(=O)N[C@@H](CCC(=O)O)C(=O)O)cc3)c2c(=O)[nH]1 [Pemetrexed] (partner 0.2 µM)	0.728
COc1cc2nccc(Oc3ccc(NC(=O)Nc4cc(C)on4)c(Cl)c3)c2cc1OC [Tivozanib] + C[C@@H](Oc1cc(-c2cnn(C3CCNCC3)c2)cnc1N)c1c(Cl)ccc(F)c1Cl [Crizotinib] (partner 1 µM)	0.919
COc1cc2nccc(Oc3ccc(NC(=O)Nc4cc(C)on4)c(Cl)c3)c2cc1OC [Tivozanib] + CS(=O)(=O)N1CCN(Cc2cc3nc(-c4cccc5[nH]ncc45)nc(N4CCOCC4)c3s2)CC1 [Pictilisib] (partner 1 µM)	0.581

###

System: NCI-H23
Assay Info: relative viability (nuclei count vs DMSO), 5 days (fraction); higher = more cells survive
Run Parameters: first compound 1.265 µM
Parameter Measured: relative viability

Compound	Tested System	Parameter Measured	Number
Cc1sc2c(c1C)C(c1ccc(Cl)cc1)=N[C@@H](CC(=O)OC(C)(C)C)c1nnc(C)n1-2 [JQ1] + CS(=O)(=O)CCNCc1ccc(-c2ccc3ncnc(Nc4ccc(OCc5cccc(F)c5)c(Cl)c4)c3c2)o1 [Lapatinib] (partner 2 µM)	NCI-H23	relative viability	0.301
Cc1sc2c(c1C)C(c1ccc(Cl)cc1)=N[C@@H](CC(=O)OC(C)(C)C)c1nnc(C)n1-2 [JQ1] + Cc1nc(Nc2ncc(C(=O)Nc3c(C)cccc3Cl)s2)cc(N2CCN(CCO)CC2)n1 [Dasatinib] (partner 0.075 µM)	NCI-H23	relative viability	0.275
Cc1sc2c(c1C)C(c1ccc(Cl)cc1)=N[C@@H](CC(=O)OC(C)(C)C)c1nnc(C)n1-2 [JQ1] + O=C(c1cc(Cc2n[nH]c(=O)c3ccccc23)ccc1F)N1CCN(C(=O)C2CC2)CC1 [Olaparib] (partner 8 µM)	NCI-H23	relative viability	0.179
Cc1sc2c(c1C)C(c1ccc(Cl)cc1)=N[C@@H](CC(=O)OC(C)(C)C)c1nnc(C)n1-2 [JQ1] + C[C@]1(O)C[C@@H](c2nc(-c3ccc4ccc(-c5ccccc5)nc4c3)c3c(N)nccn32)C1 [Linsitinib] (partner 1 µM)	NCI-H23	relative viability	0.339
Cc1sc2c(c1C)C(c1ccc(Cl)cc1)=N[C@@H](CC(=O)OC(C)(C)C)c1nnc(C)n1-2 [JQ1] + CC(C)C[C@H](NC(=O)[C@H](Cc1ccccc1)NC(=O)c1cnccn1)B(O)O [Bortezomib] (partner 0.002 µM)	NCI-H23	relative viability	0.241
Cc1sc2c(c1C)C(c1ccc(Cl)cc1)=N[C@@H](CC(=O)OC(C)(C)C)c1nnc(C)n1-2 [JQ1] + CC1(C)CCC(c2ccc(Cl)cc2)=C(CN2CCN(c3ccc(C(=O)NS(=O)(=O)c4ccc(N[C@H](CCN5CCOCC5)CSc5ccccc5)c(S(=O)(=O)C(F)(F)F)c4)cc3)CC2)C1 [Navitoclax] (partner 0.5 µM)	NCI-H23	relative viability	0.395
Cc1sc2c(c1C)C(c1ccc(Cl)cc1)=N[C@@H](CC(=O)OC(C)(C)C)c1nnc(C)n1-2 [JQ1] + C[C@@H](Oc1cc(-c2cnn(C3CCNCC3)c2)cnc1N)c1c(Cl)ccc(F)c1Cl [Crizotinib] (partner 1 µM)	NCI-H23	relative viability	0.163

###

Tested on: NCI-H1915
Assay Info: relative viability (nuclei count vs DMSO), 5 days (fraction); higher = more cells survive
Run Parameters: first compound 0.1581 µM
Parameter Measured: relative viability

Compound	Number
COc1cc2nccc(Oc3ccc(NC(=O)Nc4cc(C)on4)c(Cl)c3)c2cc1OC [Tivozanib] + CC(=O)c1c(C)c2cnc(Nc3ccc(N4CCNCC4)cn3)nc2n(C2CCCC2)c1=O [Palbociclib] (partner 0.5 µM)	0.484
Nc1ccn([C@@H]2O[C@H](CO)[C@@H](O)[C@@H]2O)c(=O)n1 [Cytarabine] + Cc1nc(Nc2ncc(C(=O)Nc3c(C)cccc3Cl)s2)cc(N2CCN(CCO)CC2)n1 [Dasatinib] (partner 0.075 µM)	0.183
Nc1ccn([C@@H]2O[C@H](CO)[C@@H](O)[C@@H]2O)c(=O)n1 [Cytarabine] + Nc1nc2[nH]cc(CCc3ccc(C(=O)N[C@@H](CCC(=O)O)C(=O)O)cc3)c2c(=O)[nH]1 [Pemetrexed] (partner 0.2 µM)	0.45
COc1cc2nccc(Oc3ccc(NC(=O)Nc4cc(C)on4)c(Cl)c3)c2cc1OC [Tivozanib] + COc1cc2c(Oc3ccc(NC(=O)C4(C(=O)Nc5ccc(F)cc5)CC4)cc3F)ccnc2cc1OCCCN1CCOCC1 [Foretinib] (partner 0.25 µM)	1.13
